Origin of the recorded values: patent US5936065A

- Measurement target: VLA-4 receptor (Homo sapiens, UniProt P05556+P13612)
- Construct: inflammatory cells that contain the VLA-4 receptor [Jurkat cells; host or cells: Jurkat cells (human T lymphoblastic line)
- Sequence (P13612 34-1032): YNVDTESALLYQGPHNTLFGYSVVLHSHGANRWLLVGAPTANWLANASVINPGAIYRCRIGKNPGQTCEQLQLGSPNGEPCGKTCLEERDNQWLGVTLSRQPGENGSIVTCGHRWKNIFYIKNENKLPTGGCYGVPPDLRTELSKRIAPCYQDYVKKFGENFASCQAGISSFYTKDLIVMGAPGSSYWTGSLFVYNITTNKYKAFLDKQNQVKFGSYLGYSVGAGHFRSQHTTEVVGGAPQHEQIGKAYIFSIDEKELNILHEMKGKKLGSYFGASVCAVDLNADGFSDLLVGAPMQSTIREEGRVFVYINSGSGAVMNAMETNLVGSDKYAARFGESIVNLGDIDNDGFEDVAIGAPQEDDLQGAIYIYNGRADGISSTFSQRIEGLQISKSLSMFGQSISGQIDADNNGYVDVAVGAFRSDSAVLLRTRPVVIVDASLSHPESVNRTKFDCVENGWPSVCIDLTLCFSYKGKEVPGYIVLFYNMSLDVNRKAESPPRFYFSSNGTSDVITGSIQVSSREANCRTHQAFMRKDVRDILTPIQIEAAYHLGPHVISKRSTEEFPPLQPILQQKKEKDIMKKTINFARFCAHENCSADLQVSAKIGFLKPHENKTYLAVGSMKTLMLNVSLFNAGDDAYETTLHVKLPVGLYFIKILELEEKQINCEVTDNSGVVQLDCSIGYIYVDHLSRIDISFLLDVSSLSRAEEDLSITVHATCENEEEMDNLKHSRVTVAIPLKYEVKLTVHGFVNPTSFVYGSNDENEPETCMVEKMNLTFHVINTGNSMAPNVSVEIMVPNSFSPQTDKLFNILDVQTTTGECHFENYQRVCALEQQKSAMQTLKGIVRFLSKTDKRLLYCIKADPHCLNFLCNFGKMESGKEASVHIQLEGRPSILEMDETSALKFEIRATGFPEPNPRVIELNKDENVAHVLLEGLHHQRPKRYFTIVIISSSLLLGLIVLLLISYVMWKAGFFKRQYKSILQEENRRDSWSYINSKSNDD
- Sequence (P05556 21-798): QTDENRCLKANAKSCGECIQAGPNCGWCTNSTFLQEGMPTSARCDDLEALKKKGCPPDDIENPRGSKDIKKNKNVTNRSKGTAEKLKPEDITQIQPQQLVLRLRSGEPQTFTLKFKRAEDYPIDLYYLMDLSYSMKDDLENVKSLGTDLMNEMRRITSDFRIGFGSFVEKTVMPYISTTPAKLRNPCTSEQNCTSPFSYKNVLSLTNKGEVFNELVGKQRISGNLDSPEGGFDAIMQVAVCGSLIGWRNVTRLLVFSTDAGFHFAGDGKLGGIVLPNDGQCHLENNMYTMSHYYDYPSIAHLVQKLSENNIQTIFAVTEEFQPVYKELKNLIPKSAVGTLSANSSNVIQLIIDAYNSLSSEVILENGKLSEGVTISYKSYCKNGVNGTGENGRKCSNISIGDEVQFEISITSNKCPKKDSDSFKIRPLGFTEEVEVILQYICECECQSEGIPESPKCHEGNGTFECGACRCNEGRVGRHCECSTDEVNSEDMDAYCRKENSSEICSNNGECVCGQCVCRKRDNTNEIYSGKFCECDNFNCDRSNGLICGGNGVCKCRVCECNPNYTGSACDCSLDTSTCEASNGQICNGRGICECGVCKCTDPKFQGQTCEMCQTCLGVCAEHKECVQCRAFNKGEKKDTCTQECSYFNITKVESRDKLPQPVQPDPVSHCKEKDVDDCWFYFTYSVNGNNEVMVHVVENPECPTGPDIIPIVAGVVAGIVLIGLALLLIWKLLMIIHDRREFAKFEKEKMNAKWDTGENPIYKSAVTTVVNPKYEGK
- Assay explanation: In vitro binding assay: inhibition of binding of 51Cr-labeled Jurkat cells to solid phase-bound CS-1 compound (SEQ ID NO:1)
- Type: cell-based
- Recorded conditions: prodrug compounds, potency before enzymatic conversion to active form; relative to SEQ ID NO:3 = 1
Square brackets hold non-standard residues; d marks the D form. Peptide text beside a SMILES is read from it. * marks the point of attachment. NHDecyl = CCCCCCCCCCN*; PhAc = O=C(Cc1ccccc1)*; X1 = CCCCCCCCCCCCCCO*; X4 = CCN(CC)C(=O)CO*; OBn = c1ccc(CO*)cc1

{"Compound": "CCN(CC)C(=O)COC(=O)C[C@H](NC(=O)[C@H](CC(C)C)NC(=O)Cc1ccccc1)C(=O)N[C@@H](Cc1ccccc1)C(=O)N1CCC[C@@H]1C(N)=O [1068.13] (PhAc-LD(X4)F[dP]-NH2)", "Relative Potency": 0}
{"Compound": "CCOC(=O)C[C@H](NC(=O)[C@H](CC(C)C)NC(=O)Cc1ccccc1)C(=O)N[C@@H](Cc1ccccc1)C(=O)N1CCC[C@@H]1C(N)=O [1190.01] (PhAc-LD(OEt)F[dP]-NH2)", "Relative Potency": 0}
{"Compound": "CC(C)C[C@H](NC(=O)Cc1ccccc1)C(=O)N[C@@H](CC(=O)OCc1ccccc1)C(=O)N[C@@H](Cc1ccccc1)C(=O)N1CCC[C@@H]1C(N)=O [1068.07] (PhAc-LD(OBn)F[dP]-NH2)", "Relative Potency": 0}
{"Compound": "CCCCCCCCCCCCCCOC(=O)C[C@H](NC(=O)[C@H](CC(C)C)NC(=O)Cc1ccccc1)C(=O)N[C@@H](Cc1ccccc1)C(=O)N1CCC[C@@H]1C(N)=O [1068.11] (PhAc-LD(X1)F[dP]-NH2)", "Relative Potency": 0}
{"Compound": "CCCCCCCCCCNC(=O)[C@@H]1CCCN1C(=O)[C@H](Cc1ccccc1)NC(=O)[C@H](CC(=O)O)NC(=O)[C@H](CC(C)C)NC(=O)Cc1ccccc1 [1068.04] (PhAc-LDFP-NHDecyl)", "Relative Potency": 2.13}

---

- Measurement target: VLA-4 receptor (Homo sapiens, UniProt P05556+P13612)
- Construct: inflammatory cells that contain the VLA-4 receptor [Jurkat cells; host or cells: Jurkat cells (human T lymphoblastic line)
- Assay explanation: In vitro binding assay: inhibition of binding of 51Cr-labeled Jurkat cells to solid phase-bound CS-1 compound (SEQ ID NO:1)
- Format: cell-based
- Recorded conditions: prodrug compounds, potency before enzymatic conversion to active form; relative to SEQ ID NO:3 = 1
Square brackets hold non-standard residues; d marks the D form. Peptide text beside a SMILES is read from it. * marks the point of attachment. NHOctadecyl = CCCCCCCCCCCCCCCCCCN*; PhAc = O=C(Cc1ccccc1)*; Ahx = NCCCCCC(=O)O; X6 = O=C(O)CO*

{"Compound": "CCCCCCCCCCCCCCCCCCNC(=O)CCCCCNC(=O)[C@@H]1CCCN1C(=O)[C@H](Cc1ccccc1)NC(=O)[C@H](CC(=O)O)NC(=O)[C@H](CC(C)C)NC(=O)Cc1ccccc1 [1068.01] (PhAc-LDFP[Ahx]-NHOctadecyl)", "Measurement target": "VLA-4 receptor (Homo sapiens, UniProt P05556+P13612)", "Relative Potency": ".91"}
{"Compound": "CC(C)C[C@H](NC(=O)Cc1ccccc1)C(=O)N[C@@H](CC(=O)OCC(=O)O)C(=O)N[C@@H](Cc1ccccc1)C(=O)N1CCC[C@@H]1C(N)=O [1067.02] (PhAc-LD(X6)F[dP]-NH2)", "Measurement target": "VLA-4 receptor (Homo sapiens, UniProt P05556+P13612)", "Relative Potency": ".81"}
{"Compound": "CCCCCCCCCCCCCCCCCC(=O)OC1CCN(C(=O)[C@H](Cc2ccccc2)NC(=O)[C@H](CC(=O)O)NC(=O)[C@H](CC(C)C)NC(=O)Cc2ccccc2)CC1", "Measurement target": "VLA-4 receptor (Homo sapiens, UniProt P05556+P13612)", "Relative Potency": ".63"}
